Target: various mutants of kinase EGFR (BaF3 cell lines stably transfected with kinase) (Homo sapiens, UniProt P00533, T790M, form not given)
Construct: other: BaF3 cells stably transfected with EGFR Δ19Del/T790M; MTS, 48 h; other: BaF3 cell line stably transfected with EGFR Δ19Del/T790M; MTS, 48
Sequence (P00533 with tags, fused parts or gaps DEL746-750/T790M, form open): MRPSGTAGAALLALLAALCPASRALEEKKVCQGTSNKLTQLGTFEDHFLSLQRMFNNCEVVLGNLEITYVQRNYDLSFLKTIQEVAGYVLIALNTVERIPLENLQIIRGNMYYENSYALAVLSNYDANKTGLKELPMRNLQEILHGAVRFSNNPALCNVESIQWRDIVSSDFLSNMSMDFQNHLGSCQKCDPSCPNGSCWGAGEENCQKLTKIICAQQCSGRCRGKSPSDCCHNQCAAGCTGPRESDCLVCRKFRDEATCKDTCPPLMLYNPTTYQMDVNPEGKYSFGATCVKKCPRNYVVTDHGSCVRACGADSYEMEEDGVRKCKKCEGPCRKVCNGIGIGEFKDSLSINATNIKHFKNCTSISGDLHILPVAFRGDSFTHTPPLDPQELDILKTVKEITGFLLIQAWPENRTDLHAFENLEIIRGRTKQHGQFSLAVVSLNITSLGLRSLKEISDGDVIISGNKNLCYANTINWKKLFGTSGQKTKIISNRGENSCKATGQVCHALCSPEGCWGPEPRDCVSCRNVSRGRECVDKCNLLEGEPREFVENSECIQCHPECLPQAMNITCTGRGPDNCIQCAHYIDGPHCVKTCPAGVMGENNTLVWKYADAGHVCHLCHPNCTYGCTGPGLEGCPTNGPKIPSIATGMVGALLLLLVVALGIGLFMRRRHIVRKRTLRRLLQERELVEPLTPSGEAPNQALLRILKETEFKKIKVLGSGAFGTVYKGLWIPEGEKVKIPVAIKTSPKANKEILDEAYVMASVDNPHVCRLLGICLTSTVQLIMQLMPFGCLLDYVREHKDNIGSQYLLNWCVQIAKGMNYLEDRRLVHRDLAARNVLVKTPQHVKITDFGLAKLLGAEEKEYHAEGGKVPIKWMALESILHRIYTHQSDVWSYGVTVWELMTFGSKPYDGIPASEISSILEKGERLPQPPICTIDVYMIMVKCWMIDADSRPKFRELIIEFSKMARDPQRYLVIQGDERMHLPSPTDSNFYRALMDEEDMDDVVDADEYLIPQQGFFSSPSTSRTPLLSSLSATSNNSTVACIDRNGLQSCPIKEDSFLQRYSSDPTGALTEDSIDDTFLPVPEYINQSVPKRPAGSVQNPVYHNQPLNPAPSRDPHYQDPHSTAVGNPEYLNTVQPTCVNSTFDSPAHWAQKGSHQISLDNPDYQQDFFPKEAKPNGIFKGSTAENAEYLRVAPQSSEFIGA
Experiment: Growth inhibitory activity of compounds on BaF3 cell lines stably transfected with kinase (MTS, 48 h)
Format: cell-based
Details: BaF3 cell line stably transfected with EGFR Δ19Del/T790M, read-out: Δ19Del/ T790M growth inhibitory activity IC50
pIC50: −log10 of the molar value.
outcome-measure: pIC50

Use the examples below as a reference point.
Problem: Quick one: pIC50 of COc1cc(N2CCC(N3CCN(C)CC3)CC2)c(C)cc1Nc1nc(Nc2ccc3nccnc3c2N(C)S(C)(=O)=O)c2ccsc2n1 ?
Solution: 5.60 to 6.30

Problem: Quick one: COc1nc(N2CCC(N3CCN(C)CC3)CC2)c(C)cc1Nc1ncc(Br)c(Nc2ccc3nccnc3c2N(C2CC2)S(C)(=O)=O)n1
Solution: 6.30 to 7.30

Others:
Problem: Return reported pIC50; argument: CCc1cc(Nc2nccc(Nc3ccc4nccnc4c3N(C)S(C)(=O)=O)n2)c(OC)cc1N1CCC(N2CCN(C)CC2)CC1
Solution: ≥ 7.30

Problem: Another molecule to check: COc1cc(N2CCC(N3CCN(C)CC3)CC2)c(Cc2ccccc2)cc1Nc1nc(Nc2ccc3nccnc3c2N(C)S(C)(=O)=O)c2sccc2n1
Solution: 6.30 to 7.30

Problem: Would you mind doing CCc1cc(Nc2nc(Nc3ccc4nccnc4c3N(C)S(C)(=O)=O)c3[nH]ccc3n2)c(OC)cc1N1CCC(N2CCN(C)CC2)CC1 as well?
Solution: 5.60 to 6.30

###

# key: entry, value: IC50
Molecular target: various mutants of kinase EGFR (BaF3 cell lines stably transfected with kinase) (Homo sapiens, UniProt P00533, L858R)
Construct: expressed in transfected cells; host or cells: BaF3
Sequence (P00533 25-1210 L858R): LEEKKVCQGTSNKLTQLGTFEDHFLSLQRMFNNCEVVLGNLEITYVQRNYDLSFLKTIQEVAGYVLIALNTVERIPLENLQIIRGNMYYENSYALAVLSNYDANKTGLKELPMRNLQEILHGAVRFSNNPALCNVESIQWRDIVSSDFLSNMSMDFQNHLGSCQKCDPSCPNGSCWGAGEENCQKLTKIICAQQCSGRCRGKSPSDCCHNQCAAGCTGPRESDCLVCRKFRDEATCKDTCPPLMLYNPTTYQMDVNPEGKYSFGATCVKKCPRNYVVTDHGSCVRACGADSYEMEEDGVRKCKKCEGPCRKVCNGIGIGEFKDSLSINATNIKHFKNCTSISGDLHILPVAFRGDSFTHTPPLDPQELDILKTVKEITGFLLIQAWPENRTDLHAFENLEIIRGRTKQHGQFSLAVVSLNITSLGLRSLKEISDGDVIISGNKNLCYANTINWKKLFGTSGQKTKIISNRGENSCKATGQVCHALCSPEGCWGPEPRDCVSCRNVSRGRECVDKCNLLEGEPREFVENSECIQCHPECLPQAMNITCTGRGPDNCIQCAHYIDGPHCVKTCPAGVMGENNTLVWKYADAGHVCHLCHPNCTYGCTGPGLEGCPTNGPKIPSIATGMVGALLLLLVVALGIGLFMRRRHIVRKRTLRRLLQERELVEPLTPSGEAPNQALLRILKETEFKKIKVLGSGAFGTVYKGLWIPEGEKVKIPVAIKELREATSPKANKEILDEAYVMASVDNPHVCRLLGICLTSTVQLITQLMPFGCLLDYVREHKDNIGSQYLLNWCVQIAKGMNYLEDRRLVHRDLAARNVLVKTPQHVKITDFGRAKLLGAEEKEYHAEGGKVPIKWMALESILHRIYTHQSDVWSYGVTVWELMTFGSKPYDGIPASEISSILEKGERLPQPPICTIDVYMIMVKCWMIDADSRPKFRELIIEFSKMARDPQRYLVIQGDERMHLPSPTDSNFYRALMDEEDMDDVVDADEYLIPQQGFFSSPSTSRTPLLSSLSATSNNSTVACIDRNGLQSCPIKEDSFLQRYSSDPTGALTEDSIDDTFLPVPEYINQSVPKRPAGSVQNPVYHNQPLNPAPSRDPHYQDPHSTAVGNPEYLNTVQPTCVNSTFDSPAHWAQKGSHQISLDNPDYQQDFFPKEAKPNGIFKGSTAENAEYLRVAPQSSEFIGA
Test: Growth inhibitory activity of compounds on BaF3 cell lines stably transfected with kinase (MTS, 48 h)
Type: cell-based
Conditions: BaF3 cells stably transfected with EGFR L858R, read-out: IC50, growth inhibition, L858R
Experimental: The activity of compounds against various mutants of kinase EGFR was evaluated by their effect of inhibiting growth of BaF3 cell lines stably transfected with kinase. The specific test method was given as follows: […] 3) Compound test: cells were incubated into a 96-well culture plate, the volume of cytosol was 90 µL, and then 10 µL of the compound at each gradient concentration was added. […] OD values at 490 nm were measured by a microplate reader (VARIOSKAN FLASH, Thermo). […]

Some solved cases for reference:
Problem: Any idea what its IC50 is? The molecule is CN(c1c(Nc2nc(Nc3ccc(S(=O)(=O)NC4CC4)cc3)ncc2Br)ccc2nccnc12)S(C)(=O)=O
Solution: 50 to 500 nM

Problem: Repeat with CCc1cc(Nc2ncc(Cl)c(Nc3ccc4nccnc4c3N(C)S(=O)(=O)C(F)(F)F)n2)c(OC)cc1N1CCC(N(C)C)CC1
Solution: 500 to 2500 nM

Problem: Same question, COc1cc(N2CCC(N3CCN(C)CC3)CC2)ccc1Nc1ncc(Br)c(Nc2ccc3nccnc3c2N(C2CC2)S(C)(=O)=O)n1 this time
Solution: 50 to 500 nM

Problem: What would you report for CN1CCN(c2ccc(Nc3ncc(Br)c(Nc4ccc5nccnc5c4N(C)S(C)(=O)=O)n3)cc2)CC1 ?
Solution: ≤ 50 nM

Problem: Another molecule to look at: CCc1cc(Nc2ncc(Cl)c(Nc3ccc4nccnc4c3N(C)S(=O)(=O)C(F)(F)F)n2)c(OC(F)(F)F)cc1N1CCC(N2CCN(C)CC2)CC1
Solution: 500 to 2500 nM

---
Problem: Consider the molecule COc1cc(N2CCC(N(C)C)C2)c(C)cc1Nc1ncc(C2CC2)c(Nc2ccc3nccnc3c2N(C)S(C)(=O)=O)n1 (stereo not shown) and give its measured IC50.
Solution: 50 to 500 nM

Problem: How about this molecule: CC1CN(C)CCc2ccc(Nc3ncc(Br)c(Nc4ccc5nccnc5c4N(C)S(C)(=O)=O)n3)cc21 (stereo not shown)
Solution: ≤ 50 nM

Problem: Then what about the molecule CCN(c1c(Nc2nc(Nc3cc(C)c(N4CCN(C)CC4)cc3OC)ncc2Br)ccc2nccnc12)S(C)(=O)=O ?
Solution: 50 to 500 nM

Problem: Likewise for CCS(=O)(=O)N(C)c1c(Nc2nc(Nc3cc(C)c(N4CCC(N5CCN(C)CC5)CC4)cc3OC)ncc2Cl)ccc2nccnc12 ?
Solution: ≤ 50 nM

Problem: One more molecule: CCc1cc(Nc2ncc(Cl)c(Nc3ccc4nccnc4c3N(C)S(=O)(=O)C(C)C)n2)c(OC)cc1N1CCC(N(C)C)C1 (stereo not shown)
Solution: 50 to 500 nM

Problem: One more molecule: CCc1cc(Nc2ncc(Cl)c(Nc3ccc4nccnc4c3N(C)S(=O)(=O)C(F)(F)F)n2)c(OC)nc1N1CCC(N2CCN(C)CC2)CC1
Solution: 500 to 2500 nM

Problem: Ok, now CCc1cc(Nc2ncc(Cl)c(Nc3ccc4nccnc4c3N(CC)S(C)(=O)=O)n2)c(OC)cc1N1CCC(N(C)C)C1 (stereo not shown)
Solution: ≤ 50 nM

Problem: Queued: COc1cc(N2CCC(N3CCN(C)CC3)CC2)c(C)cc1Nc1ncc(C)c(Nc2ccc3nccnc3c2N(C)S(C)(=O)=O)n1
Solution: ≤ 50 nM

###

Each entry below carries its reported IC50.
Target: various mutants of kinase EGFR (BaF3 cell lines stably transfected with kinase) (Homo sapiens, UniProt P00533, C797S/L858R/T790M)
Construct: expressed in transfected cells; host or cells: BaF3
Sequence (P00533 25-1210 T790M/C797S/L858R): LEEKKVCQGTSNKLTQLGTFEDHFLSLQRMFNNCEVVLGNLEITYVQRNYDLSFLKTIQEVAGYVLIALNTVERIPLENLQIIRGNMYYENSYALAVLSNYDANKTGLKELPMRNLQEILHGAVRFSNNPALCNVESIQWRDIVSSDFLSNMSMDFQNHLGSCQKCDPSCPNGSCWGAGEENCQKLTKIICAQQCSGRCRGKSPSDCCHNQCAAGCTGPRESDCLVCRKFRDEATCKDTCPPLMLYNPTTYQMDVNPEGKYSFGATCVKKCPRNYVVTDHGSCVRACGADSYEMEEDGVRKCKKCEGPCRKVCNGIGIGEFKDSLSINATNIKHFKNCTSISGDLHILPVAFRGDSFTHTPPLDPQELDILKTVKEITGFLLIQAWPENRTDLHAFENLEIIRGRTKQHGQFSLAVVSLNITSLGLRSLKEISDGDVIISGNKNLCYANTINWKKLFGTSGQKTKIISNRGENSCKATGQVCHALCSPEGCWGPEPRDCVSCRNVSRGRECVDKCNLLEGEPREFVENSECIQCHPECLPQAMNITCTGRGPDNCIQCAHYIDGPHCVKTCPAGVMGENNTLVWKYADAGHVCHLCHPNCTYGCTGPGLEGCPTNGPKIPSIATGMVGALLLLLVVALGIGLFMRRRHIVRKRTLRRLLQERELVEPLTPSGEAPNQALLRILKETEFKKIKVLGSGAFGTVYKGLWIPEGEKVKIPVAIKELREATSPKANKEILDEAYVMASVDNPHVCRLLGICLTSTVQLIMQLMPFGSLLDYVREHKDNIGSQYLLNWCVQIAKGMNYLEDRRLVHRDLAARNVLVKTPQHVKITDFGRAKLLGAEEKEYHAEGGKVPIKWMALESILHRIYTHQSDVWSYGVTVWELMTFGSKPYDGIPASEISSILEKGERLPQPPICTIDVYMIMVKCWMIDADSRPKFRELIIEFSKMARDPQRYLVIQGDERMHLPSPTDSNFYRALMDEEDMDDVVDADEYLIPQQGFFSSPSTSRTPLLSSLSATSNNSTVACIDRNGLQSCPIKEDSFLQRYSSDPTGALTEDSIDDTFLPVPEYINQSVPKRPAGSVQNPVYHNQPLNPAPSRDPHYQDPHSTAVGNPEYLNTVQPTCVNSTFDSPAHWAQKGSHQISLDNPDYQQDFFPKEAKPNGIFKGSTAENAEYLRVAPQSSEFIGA
Assay: Growth inhibitory activity of compounds on BaF3 cell lines stably transfected with kinase (MTS, 48 h)
Assay type: cell-based
Settings: BaF3 cells stably transfected with EGFR L858R/T790M/C797S, read-out: IC50, growth inhibition, L858R/T790M/C797S

Solved entries (count: 2):
Problem: Param item = CN1CCN(C2CCN(c3ccc(Nc4ncc(F)c(Nc5ccc6nccnc6c5N(C)S(C)(=O)=O)n4)c(OC(F)(F)F)c3)CC2)CC1 [Compound I-178] ; retrieve measured IC50.
Solution: 500 to 2500 nM

Problem: Next entry: CCc1cc(Nc2ncc(C(F)(F)F)c(Nc3ccc4nccnc4c3N(C)S(C)(=O)=O)n2)c(OC(F)(F)F)cc1N1CCC(N2CCN(C)CC2)CC1 [Compound I-201]
Solution: 50 to 500 nM

New cases:
Problem: # input compound: COc1cc(N2CCC(N(C)C)C2)c(C)cc1Nc1ncc(C(F)(F)F)c(Nc2ccc3nccnc3c2N(C)S(C)(=O)=O)n1 (stereo not drawn) [Compound I-209] ; wanted: its IC50
Solution: ≤ 50 nM

###

Biological target: various mutants of kinase EGFR (BaF3 cell lines stably transfected with kinase) (Homo sapiens, UniProt P00533, L858R)
Construct: expressed in transfected cells; host or cells: BaF3
Assay: Growth inhibitory activity of compounds on BaF3 cell lines stably transfected with kinase (MTS, 48 h)
Format: cell-based
Conditions: BaF3 cells stably transfected with EGFR L858R, read-out: IC50, growth inhibition, L858R
outcome-measure: IC50

Some compounds with known IC50 results, for comparison:
Problem: Need IC50 of COc1cc(N2CCN(C)CC2)c(C)cc1Nc1ncc(Cl)c(Nc2ccc3nccnc3c2N(C)S(C)(=O)=O)n1 , thanks.
Solution: ≤ 50 nM

Problem: And the next one, COc1cc(N2CCC(N3CCN(C)CC3)CC2)c(C)cc1Nc1ncc(F)c(Nc2ccc3nccnc3c2N(C)S(=O)(=O)C2CC2)n1 ?
Solution: ≤ 50 nM

Continue with the next compound.
Problem: Look at this compound and give its reported IC50. CCS(=O)(=O)N(C)c1c(Nc2nc(Nc3ccc(N4CCC(N5CCN(C)CC5)CC4)cc3OC)ncc2Br)ccc2nccnc12
Solution: 50 to 500 nM

###

Biological target: various mutants of kinase EGFR (BaF3 cell lines stably transfected with kinase) (Homo sapiens, UniProt P00533, L858R)
Construct: expressed in transfected cells; host or cells: BaF3
Experiment: Growth inhibitory activity of compounds on BaF3 cell lines stably transfected with kinase (MTS, 48 h)
Format: cell-based
Conditions: BaF3 cells stably transfected with EGFR L858R, read-out: IC50, growth inhibition, L858R
# key: entry, value: IC50

Take a look at these entries with their results.
Problem: # get_value(readout='IC50', item= CCN(c1c(Nc2nc(Nc3ccc(N4CCC(N5CCN(C)CC5)CC4)nc3OC)ncc2Cl)ccc2nccnc12)S(C)(=O)=O )
Solution: 50 to 500 nM

Problem: Let us now turn to CCc1cc(Nc2ncc(Cl)c(Nc3ccc4nccnc4c3N(CC)S(C)(=O)=O)n2)c(OC)cc1N1CCN(C)CC1
Solution: ≤ 50 nM

Now consider a different molecule.
Problem: What does the data say about its IC50? Entry: CCS(=O)(=O)N(C)c1c(Nc2nc(Nc3ccc(N4CCC(N5CCN(C)CC5)CC4)cc3OC)ncc2Cl)ccc2nccnc12
Solution: 50 to 500 nM
